- system: T1, human isoleucine zipper-CD40L (IZ-hCD40L) (human, UniProt P29965 113-261)
- T1 sequence: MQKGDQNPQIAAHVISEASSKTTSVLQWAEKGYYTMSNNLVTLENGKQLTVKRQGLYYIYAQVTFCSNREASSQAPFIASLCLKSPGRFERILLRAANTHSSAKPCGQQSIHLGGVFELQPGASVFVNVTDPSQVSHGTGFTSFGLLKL
- method.summary: cell-based or functional assay
measured.endpoint: hIZCD40L-driven Human B Cell Proliferation EC50

binder	reported.measurement
BMS2h-722 (other) VH: EVQLLESGGGLVQPGGSLRLSCAASGFTFTKYPMAWVRQAPGKGLEWVSGIDANGNRTYYADSVKGRFTISRDNSKNTLYLQMNSLRAEDTAVYYCAEGTWRRHFAIFDYWGQGTLVTVSS	> 7000 nM
BMS2h-572-6 (other) VH: EVQLLESGGGLVQPGGSLRLSCAASGFTFNWQLMGWVRQAPGKGLEWVSGIEGPGDVTYYADSVKGRFTISRDNSKNTLYLQMNSLRAEDTAVYYCVKVGKESNSDYRGQGTLVTVSS	208 nM
BMS2h-710 (other) VH: EVQLLESGGGLVQPGGSLRLSCAASGFTFNTYSMSWVRQAPGKGLEWVSWIDADGWVTYYADSVKGRFTISRDNSKNTLYLQMNSLRAEDTAVYYCAQTGHTFDYWGQGTLVTVSS	> 7000 nM
BMS2h-758-2 (other) VH: EVQLLESGGGLVQPGGSLRLSCAASGFTFGDYGMNWVRQAPGKGLEWVSHISSNGRFTYYADSVKGRFTISRDNSKNTLYLQMNSLRAEDTAVYYCAETSGYFEYWGQGTLVTVSS	> 7000 nM
BMS2h-437-4 (other) VL: DIQMTQSPSSLSASVGDRVTITCRASTPIGTMLDWYQQKPGKAPKLLIGHSSWLQSGVPSRFSGCGSGTDFTLTISSLQPEDFATYYCGQHVRPPATFGQGTKVEIKR	203 nM

[Q] Field request: hIZCD40L-driven Human B Cell Proliferation EC50 | item: BMS2h-712 (other) VH: EVQLLESGGGLVQPGGSLRLSCAASGFTFPEYEMKWVRQAPGKGLEWVSTITPSGGHTYYADSVKGRFTISRDNSKNTLYLQMNSLRAEDAAVYYCAIPLSSFDYWGRGTLVTVSS
[A] > 7000 nM

[Q] Field request: hIZCD40L-driven Human B Cell Proliferation EC50 | item: BMS2h-492-5 (other) VL: DIQMNQSPSSLSASVGDRVSITCRASQAIEHNLEWYQQKPGKAPKLLIYDASMLQSGVPSRFSGSGSGTDFTLTISSLQPEDFATYYCQQYDAYPPTFGQGTKVEIKR
[A] 2300 nM

[Q] Field request: hIZCD40L-driven Human B Cell Proliferation EC50 | item: BMS2h-758-3 (other) VH: EVQLLESGGGLVQPGGSLRLSCAASGFTFGDYGMNWVRQAPGKGLEWVSHISSNGRFTYYADSVKGRFTISRDNSKNTLYLQMNSLRAEDTAVYYCAETSSYFEYWGQGTLVTVSS
[A] > 7000 nM
